Target Or System: hERG potassium channel (Homo sapiens, UniProt Q12809, F656A)
Sequence (Q12809 whole entry F656A): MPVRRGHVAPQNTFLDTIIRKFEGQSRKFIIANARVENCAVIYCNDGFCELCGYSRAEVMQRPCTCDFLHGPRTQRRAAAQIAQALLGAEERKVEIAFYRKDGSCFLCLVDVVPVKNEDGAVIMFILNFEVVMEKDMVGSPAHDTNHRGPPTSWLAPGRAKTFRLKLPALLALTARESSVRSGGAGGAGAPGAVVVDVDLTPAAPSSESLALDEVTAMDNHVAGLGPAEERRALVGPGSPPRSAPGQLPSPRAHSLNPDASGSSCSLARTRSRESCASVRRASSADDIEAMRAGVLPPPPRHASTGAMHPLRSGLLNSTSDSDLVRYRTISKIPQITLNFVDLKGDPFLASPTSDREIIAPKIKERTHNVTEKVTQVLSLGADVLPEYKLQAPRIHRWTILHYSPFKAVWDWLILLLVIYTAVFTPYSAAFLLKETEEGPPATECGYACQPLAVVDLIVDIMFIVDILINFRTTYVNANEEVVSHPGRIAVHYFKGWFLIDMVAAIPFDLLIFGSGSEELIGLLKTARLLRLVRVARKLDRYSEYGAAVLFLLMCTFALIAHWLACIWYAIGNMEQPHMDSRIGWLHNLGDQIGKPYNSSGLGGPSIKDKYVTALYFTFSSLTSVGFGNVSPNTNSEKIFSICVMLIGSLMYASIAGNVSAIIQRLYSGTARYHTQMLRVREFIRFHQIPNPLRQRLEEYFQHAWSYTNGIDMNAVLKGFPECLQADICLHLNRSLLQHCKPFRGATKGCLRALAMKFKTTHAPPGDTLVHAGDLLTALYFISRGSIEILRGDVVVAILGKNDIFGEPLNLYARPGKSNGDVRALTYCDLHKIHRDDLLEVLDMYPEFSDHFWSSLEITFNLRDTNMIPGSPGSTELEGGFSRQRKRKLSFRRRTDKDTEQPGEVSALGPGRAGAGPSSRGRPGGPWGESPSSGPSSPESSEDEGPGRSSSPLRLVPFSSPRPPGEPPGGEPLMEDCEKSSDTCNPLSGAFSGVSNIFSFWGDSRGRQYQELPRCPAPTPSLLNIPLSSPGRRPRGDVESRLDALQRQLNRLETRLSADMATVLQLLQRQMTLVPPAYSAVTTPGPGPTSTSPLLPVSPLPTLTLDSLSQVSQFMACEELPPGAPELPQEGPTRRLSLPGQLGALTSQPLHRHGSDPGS
Assay Summary: whole-cell patch clamp, inhibition at […]
Format: cell-based
Property Measured: inhibition at 1 µM (%)
Answers are plain numbers, in %.

Prompt line: I have this compound here, `CC1=C(O)C(=O)C=C2C1=CC=C1[C@@]2(C)CC[C@@]2(C)[C@@H]3C[C@](C)(C(=O)O)CC[C@]3(C)CC[C@]12C` , and I need its recorded inhibition at 1 µM.
Response line: 34.5
